Molecular target: Aminopeptidase N (Sus scrofa, UniProt P15145)
Sequence (P15145 whole entry): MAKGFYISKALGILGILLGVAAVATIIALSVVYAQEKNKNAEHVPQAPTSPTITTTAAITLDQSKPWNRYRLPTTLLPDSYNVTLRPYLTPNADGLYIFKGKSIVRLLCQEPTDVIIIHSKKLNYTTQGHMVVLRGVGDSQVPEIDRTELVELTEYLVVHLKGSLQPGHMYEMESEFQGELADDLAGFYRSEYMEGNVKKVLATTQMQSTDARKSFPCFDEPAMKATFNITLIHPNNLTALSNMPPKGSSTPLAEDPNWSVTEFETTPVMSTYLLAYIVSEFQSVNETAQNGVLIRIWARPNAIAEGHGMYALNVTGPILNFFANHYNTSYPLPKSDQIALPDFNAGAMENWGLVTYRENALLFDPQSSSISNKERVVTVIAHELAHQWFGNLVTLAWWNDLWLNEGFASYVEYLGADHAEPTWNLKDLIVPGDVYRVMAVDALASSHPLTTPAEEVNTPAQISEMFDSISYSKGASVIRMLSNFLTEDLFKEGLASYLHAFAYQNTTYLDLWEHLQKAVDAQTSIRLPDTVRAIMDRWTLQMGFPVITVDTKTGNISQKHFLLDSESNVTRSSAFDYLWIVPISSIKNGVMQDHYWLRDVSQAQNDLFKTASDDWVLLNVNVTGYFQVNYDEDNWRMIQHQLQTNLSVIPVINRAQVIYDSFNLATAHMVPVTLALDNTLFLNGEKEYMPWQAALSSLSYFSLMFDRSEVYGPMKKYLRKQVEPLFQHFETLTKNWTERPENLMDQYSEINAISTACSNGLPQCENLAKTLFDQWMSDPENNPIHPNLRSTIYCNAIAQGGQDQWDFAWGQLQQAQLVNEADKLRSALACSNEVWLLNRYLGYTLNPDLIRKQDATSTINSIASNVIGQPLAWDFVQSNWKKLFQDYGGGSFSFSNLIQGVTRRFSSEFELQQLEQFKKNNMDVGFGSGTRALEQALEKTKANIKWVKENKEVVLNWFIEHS
pIC50: −log10 of the molar value.
Recorded pIC50 for compounds tested on Aminopeptidase N (Sus scrofa, UniProt P15145), drawn from a number of studies.
quantity_kind: pIC50

The cases that follow already have their pIC50 on record.
Prompt line: Identify measured pIC50 corresponding to C[C@@H](NC(=O)/C=C/c1ccc(O)cc1)C(=O)Nc1nnc(-c2ccc([N+](=O)[O-])cc2)s1
Response line: 4.27

Prompt line: Return pIC50 for the following compound: O=C(NCCc1ccccc1)N[C@H](C(=O)NO)c1ccccc1
Response line: 5.72

Prompt line: Tell me measured pIC50 for COc1cc(C(=O)N[C@H](CCC(=O)O)C(=O)Nc2ccc(S(N)(=O)=O)cc2)cc(OC)c1OC please.
Response line: 3.99

I: CC(C)[C@H](NC(=O)C1(N)CCN(c2ncnc3[nH]ccc23)CC1)C(=O)NO
II: NC1(C(=O)N[C@@H](C(=O)NO)c2ccccc2)CCN(c2ncnc3[nH]ccc23)CC1
III: Nn1c(COc2ccccc2)n[nH]c1=S
IV: O=C(/C=C/c1ccccc1)N[C@H](CC(=O)NCc1ccccc1)C(=O)NO
Prompt line: // sort entries: pIC50, high to low Response field: labels, in requested order.
Response line: II, IV, I, III
